assay: Cell viability assay (MTT); format: cell-based; details: rat, INS-1 cells; MTT, 48 h; read-out: IC50 for cytotoxicity against INS-1 cells
measurement-label: IC50 at 48 h (µM)
I only need the number, in µM, no unit after it.

So for Oc1cc(Cl)ccc1Oc1ccc(Cl)cc1Cl , the logged IC50 at 48 h turned out to be 12.7
